Data provenance is patent US11566007B2.

# MEASURED_ON: NRAS G12C (Homo sapiens (Human), UniProt P01111+P62937, G12C)
# Sequence (P01111 whole entry G12C): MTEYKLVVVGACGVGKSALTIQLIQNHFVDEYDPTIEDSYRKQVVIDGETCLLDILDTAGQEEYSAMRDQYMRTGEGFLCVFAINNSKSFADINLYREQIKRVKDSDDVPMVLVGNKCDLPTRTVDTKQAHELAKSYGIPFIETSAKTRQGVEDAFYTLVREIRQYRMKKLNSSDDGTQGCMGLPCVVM
# Sequence (P62937 whole entry): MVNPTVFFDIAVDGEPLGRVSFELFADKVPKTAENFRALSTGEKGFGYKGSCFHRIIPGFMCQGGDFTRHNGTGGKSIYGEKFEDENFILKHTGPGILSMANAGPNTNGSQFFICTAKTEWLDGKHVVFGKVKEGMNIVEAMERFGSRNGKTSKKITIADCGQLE
# ASSAY: Ras-Raf (BRAF RBD) disruption / FRET / MOA assay, NRAS G12C
# Type: biochemical
# APPLIED_CONDITIONS: read-out: IC50* NRAS G12C FRET data
pIC50: −log10 of the molar value.
ASSAY_METRIC: pIC50

COMPOUND | ASSAY_METRIC | RESULT
C=CC(=O)N1CCC2(CCN([C@H](C(=O)N[C@H]3Cc4cc(O)cc(c4)-c4ccc5c(c4)c(c(-c4cccnc4[C@H](C)OC)n5CC)CC(C)(C)COC(=O)[C@@H]4CCCN(N4)C3=O)C(C)C)C2=O)C1 (stereo partly drawn) | pIC50 | 7.00 to 8.00
C=CC(=O)N1CC(N(C)C(=O)N(C)[C@H](C(=O)N[C@H]2Cc3nc(cs3)-c3ccc4c(c3)c(c(-c3cccnc3[C@H](C)OC)n4CC(F)(F)F)CC(C)(C)COC(=O)[C@@H]3CCCN(N3)C2=O)C(C)C)C1 (atropisomer, axis not shown) | pIC50 | > 8.00
CO[C@@H](C)c1ncccc1-c1nc2ccc3cn2c1CC(C)(C)COC(=O)[C@@H]1CCCN(N1)C(=O)[C@@H](NC(=O)[C@H](C(C)C)N(C)C(=O)[C@H]1CCN(C(=O)C#CC(C)(C)N(C)C)C1)Cc1cccc-3c1 | pIC50 | < 5.00
CCn1c(-c2cccnc2[C@H](C)OC)c2c3cc(ccc31)-c1cccc(c1)C[C@H](NC(=O)CCOC1CN(C(=O)C#CC(C)(C)N3CCC3)C1)C(=O)N1CCC[C@H](N1)C(=O)OCC(C)(C)C2 (atropisomer, axis not shown) | pIC50 | 7.00 to 8.00
C=CC(=O)N1CC[C@H](C(=O)N(C)[C@H](C(=O)N[C@H]2Cc3nc(cs3)-c3ccc4c(c3)c(c(-c3cccnc3[C@H](C)OC)n4CC)CC(C)(C)C/C=C/[C@@H]3CCCN(N3)C2=O)C(C)C)C1 (atropisomer, axis not shown) | pIC50 | < 5.00
CO[C@@H](C)c1ncccc1-c1c2c3nc(ccc3n1CC(F)(F)F)-c1cccc(c1)C[C@H](NC(=O)[C@@H](COC1CN(C(=O)C#CC(C)(C)N(C)C)C1)C(C)C)C(=O)N1CCC[C@H](N1)C(=O)OCC(C)(C)C2 (atropisomer, axis not shown) | pIC50 | 7.00 to 8.00
C=CC(=O)N1CC[C@H](C(=O)N(C)[C@H](C(=O)N[C@H]2Cc3cc(cc(C(F)F)c3)-c3ccc4c(c3)c(c(-c3cccnc3[C@H](C)OC)n4CC)CC(C)(C)COC(=O)[C@@H]3CCCN(N3)C2=O)C(C)C)C1 (atropisomer, axis not shown) | pIC50 | 6.00 to 7.00
CCn1c(-c2cccnc2[C@H](C)OC)c2c3cc(ccc31)-c1nc(co1)C[C@H](NC(=O)[C@@H](COC1CN(C(=O)C#CC(C)(C)N(C)C)C1)C(C)C)C(=O)N1CCC[C@H](N1)C(=O)OCC(C)(C)C2 (atropisomer, axis not shown) | pIC50 | 7.00 to 8.00
C=CC(=O)N1CC[C@H]2[C@@H]1CN2C(=O)N(C)[C@H](C(=O)N[C@H]1Cc2nc(cs2)-c2ccc3c(c2)c(c(-c2cccnc2[C@H](C)OC)n3CC)CC(C)(C)COC(=O)[C@@H]2CCCN(N2)C1=O)C(C)C (atropisomer, axis not shown) | pIC50 | 6.00 to 7.00
CO[C@@H](C)c1ncccc1-c1c2c3cc(ccc3n1CC(F)(F)F)-c1cccc(c1)C[C@H](NC(=O)[C@H](C(C)C)N1CC[C@]3(CCN(C(=O)C#CC(C)(C)N(C)C)C3)C1=O)C(=O)N1CCC[C@H](N1)C(=O)OCC(C)(C)C2 (atropisomer, axis not shown) | pIC50 | > 8.00
C=C(F)C(=O)N1CC(N(C)C(=O)N(C)[C@H](C(=O)N[C@H]2Cc3nc(cs3)-c3ccc4c(c3)c(c(-c3cccnc3[C@H](C)OC)n4CC)CC(C)(C)COC(=O)[C@@H]3CCCN(N3)C2=O)C(C)C)C1 (atropisomer, axis not shown) | pIC50 | 6.00 to 7.00
CO[C@@H](C)c1ncccc1-c1c2c3cc(ccc3n1CC(F)(F)F)-c1nc(ns1)C[C@H](NC(=O)[C@@H](COC1CN(C(=O)C#CC(C)(C)N(C)C)C1)C(C)C)C(=O)N1CCC[C@H](N1)C(=O)OCC(C)(C)C2 (atropisomer, axis not shown) | pIC50 | 7.00 to 8.00
C=CC(=O)N1CCN(C(=O)N(C)[C@H](C(=O)N[C@H]2Cc3nc(cs3)-c3ccc4c(c3)c(c(-c3cccnc3[C@H](C)OC)n4CC)CC(C)(C)COC(=O)[C@@H]3CCCN(N3)C2=O)C(C)C)[C@@H]2C[C@@H]21 (atropisomer, axis not shown) | pIC50 | 7.00 to 8.00
CCn1c(-c2cccnc2COC)c2c3cc(ccc31)-c1cc(C)cc(c1)C[C@H](NC(=O)[C@H](C(C)C)N(C)C(=O)[C@H]1CCN(C(=O)C#CCN(C)C)C1)C(=O)N1CCC[C@H](N1)C(=O)OCC(C)(C)C2 [Example A157] | pIC50 | > 8.00
CCn1c(-c2cccnc2COC)c2c3cc(ccc31)-c1cc(O)cc(c1)C[C@H](NC(=O)[C@H](C(C)C)N(C)C(=O)[C@H]1CCN(C(=O)C#CCCN3CCOCC3)C1)C(=O)N1CCC[C@H](N1)C(=O)OCC(C)(C)C2 | pIC50 | > 8.00

###

# MEASURED_ON: KRAS G12D (Homo sapiens (Human), UniProt P01116+P62937, G12D)
# Sequence (P01116-2 other isoform, or with tags, fused parts or gaps G12D, one chain of several): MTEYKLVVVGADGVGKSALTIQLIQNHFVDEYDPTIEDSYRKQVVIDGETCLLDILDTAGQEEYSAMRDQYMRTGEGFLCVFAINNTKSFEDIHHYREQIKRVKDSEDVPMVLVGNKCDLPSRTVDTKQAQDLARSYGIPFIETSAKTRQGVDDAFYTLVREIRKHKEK
# ASSAY: Ras-Raf (BRAF RBD) disruption / FRET / MOA assay, KRAS G12D
# Format: biochemical
# APPLIED_CONDITIONS: Ras-Raf disruption/FRET/MOA assay; class symbols; read-out: KRAS G12D FRET data IC50
# Experimental: The purpose of this biochemical assay is to measure the ability of test compounds to facilitate ternary complex formation between a nucleotide-loaded Ras isoform and cyclophilin A; the resulting ternary complex disrupts binding to a BRAF^RBD construct, inhibiting Ras signaling through a RAF effector. Compound is present in plate wells as a 10-point 3-fold dilution series starting at a final concentration of 30 μM. […]
pIC50: −log10 of the molar value.
Reported values of pIC50 for individual entries

MOLECULE | pIC50
C=CC(=O)N1CCOC2(CCN(C(=O)N(C)[C@H](C(=O)N[C@H]3Cc4nsc(n4)-c4ccc5c(c4)c(c(-c4cccnc4[C@H](C)OC)n5CC)CC(C)(C)COC(=O)[C@@H]4CCCN(N4)C3=O)C(C)C)CC2)C1 (atropisomer, axis not shown) [Example A545] | 5.00 to 6.00
CCn1c(-c2cccnc2COC)c2c3cc(ccc31)-c1cc(O)cc(c1)C[C@H](NC(=O)[C@H](C(C)C)N(C)C(=O)c1ccc(NC(=O)/C=C/CN(C)C)cn1)C(=O)N1CCC[C@H](N1)C(=O)OCC(C)(C)C2 [Example A067] | 5.00 to 6.00

###

# MEASURED_ON: NRAS WT (Homo sapiens (Human), UniProt P01111+P62937)
# Sequence (P01111 whole entry): as the sequence (P01111 whole entry G12C) above, with C12G counted along it
# Sequence (P62937 whole entry): as the sequence (P62937 whole entry) above
# ASSAY: Ras-Raf (BRAF RBD) disruption / FRET / MOA assay, NRAS WT
# Format: biochemical
# APPLIED_CONDITIONS: read-out: IC50* NRAS WT FRET data
# Protocol: The purpose of this biochemical assay is to measure the ability of test compounds to facilitate ternary complex formation between a nucleotide-loaded Ras isoform and cyclophilin A; the resulting ternary complex disrupts binding to a BRAF^RBD construct, inhibiting Ras signaling through a RAF effector. […]. Compound is present in plate wells as a 10-point 3-fold dilution series starting at a final concentration of 30 μM. […]
pIC50: −log10 of the molar value.
Listing: pIC50 of selected molecules
ASSAY_METRIC: pIC50

MOLECULE | RESULT
C=CC(=O)N1CC[C@H](C(=O)N(C)[C@H](C(=O)N[C@H]2Cc3cc(F)cc(c3)-c3ccc4c(c3)c(c(-c3cccnc3[C@H](C)OC)n4CC)CC(C)(C)COC(=O)[C@@H]3CCCN(N3)C2=O)C(C)C)C1 (atropisomer, axis not shown) | 5.00 to 6.00
C=CC(=O)N1CC2(CCN2C(=O)N(C)[C@H](C(=O)N[C@H]2Cc3cccc(c3)-c3ccc4c(c3)c(c(-c3cccnc3[C@H](C)OC)n4CC)CC(C)(C)COC(=O)[C@@H]3CCCN(N3)C2=O)C(C)C)C1 (atropisomer, axis not shown) | 6.00 to 7.00
CCn1c(-c2cccnc2[C@H](C)OC)c2c3cc(ccc31)-c1cccc(c1)C[C@H](NC(=O)[C@H](C(C)C)N1CC[C@@]3(CCN(C(=O)C#C[C@@H]4COCCN4C4COC4)C3)C1=O)C(=O)N1CCC[C@H](N1)C(=O)OCC(C)(C)C2 | 5.00 to 6.00
C=CC(=O)N(C)C1CCN(C(=O)N(C)[C@H](C(=O)N[C@H]2Cc3nc(cs3)-c3ccc4c(c3)c(c(-c3cccnc3[C@H](C)OC)n4CC)CC(C)(C)COC(=O)[C@@H]3CCCN(N3)C2=O)C(C)C)CC1 (atropisomer, axis not shown) | 7.00 to 8.00
